# experimental system: APP-TAP-AICD (human, UniProt P05067 18-695)
# measurement notes: streptavidin purification of APP-TAP-AICD from brain homogenate; LTQ-FT semiquantitative method, transgenic mouse 75 vs control mouse 72
assay metric: probability that this protein is enriched

>>> result_value("14-3-3 protein gamma (other, mouse, UniProt P61982 1-247, looked up, also called 14-3-3 γ) MVDREQLVQKARLAEQAERYDDMAAAMKNVTELNEPLSNEERNLLSVAYKNVVGARRSSWRVISSIEQKTSADGNEKKIEMVRAYREKIEKELEAVCQDVLSLLDNYLIKNCSETQYESKVFYLKMKGDYYRYLAEVATGEKRATVVESSEKAYSEAHEISKEHMQPTHPIRLGLALNYSVFYYEIQNAPEQACHLAKTAFDDAIAELDTLNEDSYKDSTLIMQLLRDNLTLWTSDQQDDDGGEGNN")
0.83
>>> result_value("14-3-3 protein beta/alpha (Protein kinase C inhibitor protein 1) (KCIP-1) (other, mouse, UniProt Q9CQV8 1-246, looked up, also called 14-3-3 β) MTMDKSELVQKAKLAEQAERYDDMAAAMKAVTEQGHELSNEERNLLSVAYKNVVGARRSSWRVISSIEQKTERNEKKQQMGKEYREKIEAELQDICNDVLELLDKYLILNATQAESKVFYLKMKGDYFRYLSEVASGENKQTTVSNSQQAYQEAFEISKKEMQPTHPIRLGLALNFSVFYYEILNSPEKACSLAKTAFDEAIAELDTLNEESYKDSTLIMQLLRDNLTLWTSENQGDEGDAGEGEN")
1
>>> result_value("Phosphatidylethanolamine-binding protein (PEBP) (other, mouse, UniProt P70296 2-187, looked up, also called PEBP1_MOUSE) AADISQWAGPLCLQEVDEPPQHALRVDYAGVTVDELGKVLTPTQVMNRPSSISWDGLDPGKLYTLVLTDPDAPSRKDPKFREWHHFLVVNMKGNDISSGTVLSDYVGSGPPSGTGLHRYVWLVYEQEQPLSCDEPILSNKSGDNRGKFKVETFRKKYNLGAPVAGTCYQAEWDDYVPKLYEQLSGK")
1
